Taken from the supplement of paper PMC10567573.

B1: NETO1 (parent)
chain: KTSLLDQLTNTSGTVIGVTSCIVI

- Variants of: B1
- procedure_summary: protein stability index of a GFP-peptide fusion (GPS, HEK-293T) (PSI 1-6); higher = more stable;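 further: lentivirally expressed fusions sorted by FACS into six bins by GFP to DsRed ratio, PSI derived from sequencing read proportions per bin multiplied by bin number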
- experimental_setup: c terminus: a fixed tail appended
Lab note: anything with protein stability index at or over 3 counts as 1; the rest go in -1.

For orientation, consider the following solved cases.
KTSLLDTLTNTSGTVIGVTSCIVI :: -1
KTSLLDQLTNTSTTVIGVTSCIVI :: -1
KTFLLDQLTNTSGTVIGVTSCIVI :: -1
KTSLLDQLTNTSGTVCGVTSCIVI :: 1
KTSLLDQLTNTSGTVIGVTSCIVS :: -1

protein stability index >= 3 for `KTSLLDQLTNISGTVIGVTSCIVI` ? -1

Consider next the variant `KTSLLDQLTNTSGTVIGVTSCICI` in the same way. 1

Request: `KTSLLSQLTNTSGTVIGVTSCIVI` -1

How about this variant: `KTVLLDQLTNTSGTVIGVTSCIVI` -1
